SUBJECT_OF_TEST: mPGES-1 Mouse enzyme (Mus musculus)
Construct: made in house; host or cells: FreeStyle 293-F cells, crude microsomal preparation
Sequence (Q9JM51 1-153): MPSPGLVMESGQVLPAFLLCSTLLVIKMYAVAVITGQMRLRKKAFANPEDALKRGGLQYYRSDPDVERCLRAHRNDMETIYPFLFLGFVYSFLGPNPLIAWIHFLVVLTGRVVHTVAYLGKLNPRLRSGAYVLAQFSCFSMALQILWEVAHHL
PROTOCOL_NOTES: mPGES-1 enzyme activity assay (PGE2 enzyme immunoassay), mouse enzyme
Assay type: biochemical
ASSAY_CONDITIONS: IC50 against mPGES-1, Mouse enzyme, recombinant microsomal enzyme; means ± SD, triplicate
MEASURED_ENDPOINT: log10(IC50) (log10 of the value in nM)
log10 IC50, nM

Returns the measured log10(IC50) for the input compound. Input: CCCCOc1ccc(-c2nn(-c3ccc(Cl)cc3)cc2C=C2C(=O)NC(=S)NC2=O)cc1
2.65

Returns the measured log10(IC50) for the input compound. Input: O=C1NC(=O)C(=Cc2c(OCCCCC3CCCCC3)ccc3ccccc23)C(=O)N1
3.85

Returns the measured log10(IC50) for the input compound. Input: CCCCCCCOc1ccc(C=C2C(=O)NC(=O)NC2=O)cc1[N+](=O)[O-]
2.87

Returns the measured log10(IC50) for the input compound. Input: CCCCCCCCOc1ccc(-c2nn(-c3ccc(Cl)cc3)cc2C=C2C(=O)NC(=S)NC2=O)cc1
2.50

Returns the measured log10(IC50) for the input compound. Input: CCCCCCCCOc1ccc(-c2nn(-c3ccccc3)cc2C=C2C(=O)NC(=S)NC2=O)cc1
3.05

Returns the measured log10(IC50) for the input compound. Input: CCOc1cc(C=C2C(=O)NC(=O)NC2=O)ccc1OCCCCC1CCCCC1
3.38

Returns the measured log10(IC50) for the input compound. Input: CCCCCOc1ccc(C=C2C(=O)NC(=O)NC2=O)cc1[N+](=O)[O-]
3.80

These measurements were taken from patent US12030877B2.
